# experimental-system: glucagon receptor (UniProt P47871 26-477, limits assumed)
# Sequence (P47871 26-477 limits assumed): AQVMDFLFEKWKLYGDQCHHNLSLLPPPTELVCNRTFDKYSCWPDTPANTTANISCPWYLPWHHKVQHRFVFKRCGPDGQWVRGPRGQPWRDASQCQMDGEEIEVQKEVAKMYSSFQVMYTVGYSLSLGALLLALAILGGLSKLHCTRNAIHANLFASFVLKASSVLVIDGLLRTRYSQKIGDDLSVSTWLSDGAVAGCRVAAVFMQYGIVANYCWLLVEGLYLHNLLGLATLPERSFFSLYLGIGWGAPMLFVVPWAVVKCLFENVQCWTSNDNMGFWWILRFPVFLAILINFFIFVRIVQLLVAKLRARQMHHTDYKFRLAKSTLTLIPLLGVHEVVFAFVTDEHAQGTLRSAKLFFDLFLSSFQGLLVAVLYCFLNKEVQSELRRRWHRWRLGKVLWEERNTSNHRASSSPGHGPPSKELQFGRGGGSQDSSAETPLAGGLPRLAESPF
# test-name: cell-based or functional assay
*1 amine or outer side, *2 acyl side, *3 side chain or, on linkers, in order; H or OH if unused. Where no end group is shown, it is not given here. Side-chain parts run from the residue outwards. [ ]: non-standard residue; d: D form. The star is where a group is joined. γGlu = O=C(O)[C@H](CCC(=O)[*:2])N[*:1]; Palmitoyl = CCCCCCCCCCCCCCCC(=O)*; 40K‑ME = not defined here; 40K‑TE = not defined here; Ac3c = NC1(C(=O)O)CC1; Aib = CC(C)(N)C(=O)O
observable: EC50 (cAMP reporter)

>>> obs_value("Y[Aib]QGTFTSDYSIYLDKQAA[Ac3c]EFVNWLLAGGPSSGAPPPSC-NH2 [peptide of SEQ ID NO: 60]")
"47 pM"
>>> obs_value("Y[dS]QGTFTSDYSIYLDKQAA[Aib]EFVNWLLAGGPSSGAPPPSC(40K‑TE)-NH2 (reading uncertain) [peptide of SEQ ID NO: 51]")
"255 pM"
>>> obs_value("H[Aib]QGTFTSDYSIYLDKQAA[Aib]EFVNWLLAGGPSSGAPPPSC(40K‑TE)-NH2 (reading uncertain) [peptide of SEQ ID NO: 53]")
"3510 pM"
>>> obs_value("Y[Aib]QGTFTSDK([γGlu-Palmitoyl])SIYLDKQAA[Aib]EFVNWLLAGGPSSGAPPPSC(40K‑ME)-NH2 (reading uncertain) [peptide of SEQ ID NO: 69]")
"55 pM"
>>> obs_value("Y[Aib]EGTFTSDYSIYLDKQAA[Aib]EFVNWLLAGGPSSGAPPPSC(PEG 40 kDa)-NH2 [peptide of SEQ ID NO: 175]")
"620 pM"
